target under test: PI3K alpha (Homo sapiens (Human))
protocol summary: Enzymatic PI3K alpha isoform inhibition (lipid kinase, Kinase-Glo luminescence)
Assay type: biochemical
condition parameters: enzymatic assay
pIC50: −log10 of the molar value.
attribute measured: pIC50

Solved cases below.
> print(dat)
                                   molecule  measurement
1  COc1ncc(N2CCc3ncnc(O[C@H]4CCN(C(=O)C5CCOC(C)(C)C5)C4)c3C2)cc1C (some centres unmarked) [Example 38]         5.48
2  COc1ncc(N2CCc3ncnc(O[C@H]4CCN(C(=O)c5ccno5)C4)c3C2)cc1C [Example 34]         5.78
3  COc1ncc(N2CCc3ncnc(O[C@H]4CCN(C(=O)c5coc(C)n5)C4)c3C2)cc1C [Example 14]         5.74
4  COc1ncc(N2CCc3ncnc(O[C@H]4CCN(C(=O)c5ccon5)C4)c3C2)cc1C [Example 33]         5.71
5  COc1cc(N2CCc3ncnc(O[C@H]4CCN(C(=O)C5CCOCC5)C4)c3C2)cnc1OC [Example 5]         6.13

(A) CCC(=O)N1CC[C@H](Oc2ncnc3c2CN(c2cnc(OC)c(C(F)(F)F)c2)CC3)C1 [Example 63]
(B) COCC(=O)N1CC[C@H](Oc2ncnc3c2CN(c2cnc(OC)c(C#N)c2)CC3)C1 [Example 8]
(C) COc1ncc(N2CCc3ncnc(O[C@H]4CCN(C(=O)C5CCOCC5)C4)c3C2)cn1 [Example 59]
[Q] Form: Sort by [pIC50] Order [ ascending ] Rank them, then answer with their labels in that order.
[A] C, B, A
(C: 5.04, B: 5.60, A: 6.10)

* * *

target under test: PI3K delta (Homo sapiens (Human), UniProt O00329)
Sequence (O00329 other isoform, or with tags, fused parts or gaps linker GGGGGG): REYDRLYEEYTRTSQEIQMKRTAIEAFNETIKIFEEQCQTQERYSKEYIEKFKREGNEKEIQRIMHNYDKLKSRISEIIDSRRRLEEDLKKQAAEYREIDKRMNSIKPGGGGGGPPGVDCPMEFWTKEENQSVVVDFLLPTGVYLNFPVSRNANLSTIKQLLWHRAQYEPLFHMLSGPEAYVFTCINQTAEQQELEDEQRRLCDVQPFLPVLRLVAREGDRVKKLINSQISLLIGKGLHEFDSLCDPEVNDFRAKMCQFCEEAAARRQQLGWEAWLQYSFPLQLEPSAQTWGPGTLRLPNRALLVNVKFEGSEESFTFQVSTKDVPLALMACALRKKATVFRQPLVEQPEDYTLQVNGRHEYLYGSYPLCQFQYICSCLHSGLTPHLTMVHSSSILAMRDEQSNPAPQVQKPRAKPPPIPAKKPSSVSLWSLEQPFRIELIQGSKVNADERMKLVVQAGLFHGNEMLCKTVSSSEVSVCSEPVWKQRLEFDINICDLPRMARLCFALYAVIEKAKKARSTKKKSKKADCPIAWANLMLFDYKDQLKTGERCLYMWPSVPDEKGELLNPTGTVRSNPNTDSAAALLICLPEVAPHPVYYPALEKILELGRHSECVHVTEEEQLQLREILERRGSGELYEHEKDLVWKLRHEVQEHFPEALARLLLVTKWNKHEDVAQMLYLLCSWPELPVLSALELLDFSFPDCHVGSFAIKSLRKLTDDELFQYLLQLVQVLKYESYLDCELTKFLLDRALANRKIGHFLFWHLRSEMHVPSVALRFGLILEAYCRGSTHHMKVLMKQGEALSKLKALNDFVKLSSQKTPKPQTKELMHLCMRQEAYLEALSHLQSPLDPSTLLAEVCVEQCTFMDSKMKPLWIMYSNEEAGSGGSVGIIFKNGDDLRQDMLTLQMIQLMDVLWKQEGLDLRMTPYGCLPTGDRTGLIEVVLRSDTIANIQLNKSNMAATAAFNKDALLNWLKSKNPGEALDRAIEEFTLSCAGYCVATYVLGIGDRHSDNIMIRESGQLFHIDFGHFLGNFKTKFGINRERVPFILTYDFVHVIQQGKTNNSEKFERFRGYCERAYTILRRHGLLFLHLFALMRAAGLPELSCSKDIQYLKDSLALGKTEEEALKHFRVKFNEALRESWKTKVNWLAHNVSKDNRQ
protocol summary: Enzymatic PI3K delta isoform inhibition (lipid kinase, Kinase-Glo luminescence)
Type: biochemical
condition parameters: enzymatic assay
pIC50: −log10 of the molar value.
attribute measured: pIC50

Solved cases below.
> print(dat)
                                item.smiles  measurement
1  COc1ncc(N2CCc3ncnc(O[C@H]4CCN(C(=O)C5CCCC5)C4)c3C2)cc1C#N         8.05
2  COc1ncc(N2CCc3ncnc(O[C@H]4CCN(C(=O)CC(C)(C)C)C4)c3C2)cc1C(F)(F)F         7.64
3  COc1cc(N2CCc3ncnc(O[C@H]4CCN(C(=O)c5cnco5)C4)c3C2)cnc1OC         8.10

(P) COc1ncc(N2CCc3ncnc(O[C@H]4CCN(C(=O)c5conc5C)C4)c3C2)cc1C
(Q) COc1ncc(N2CCc3ncnc(O[C@H]4CCN(C(=O)C5CCS(=O)(=O)CC5)C4)c3C2)cc1C(F)(F)F
[Q] Compare the recorded pIC50 of P and Q ; state which is larger. Write down the label of the entry you select.
[A] Q
(Q: 8.05, P: 7.64)

* * *

target under test: PI3K alpha (Homo sapiens (Human), UniProt P42336)
Sequence (P42336 other isoform, or with tags, fused parts or gaps): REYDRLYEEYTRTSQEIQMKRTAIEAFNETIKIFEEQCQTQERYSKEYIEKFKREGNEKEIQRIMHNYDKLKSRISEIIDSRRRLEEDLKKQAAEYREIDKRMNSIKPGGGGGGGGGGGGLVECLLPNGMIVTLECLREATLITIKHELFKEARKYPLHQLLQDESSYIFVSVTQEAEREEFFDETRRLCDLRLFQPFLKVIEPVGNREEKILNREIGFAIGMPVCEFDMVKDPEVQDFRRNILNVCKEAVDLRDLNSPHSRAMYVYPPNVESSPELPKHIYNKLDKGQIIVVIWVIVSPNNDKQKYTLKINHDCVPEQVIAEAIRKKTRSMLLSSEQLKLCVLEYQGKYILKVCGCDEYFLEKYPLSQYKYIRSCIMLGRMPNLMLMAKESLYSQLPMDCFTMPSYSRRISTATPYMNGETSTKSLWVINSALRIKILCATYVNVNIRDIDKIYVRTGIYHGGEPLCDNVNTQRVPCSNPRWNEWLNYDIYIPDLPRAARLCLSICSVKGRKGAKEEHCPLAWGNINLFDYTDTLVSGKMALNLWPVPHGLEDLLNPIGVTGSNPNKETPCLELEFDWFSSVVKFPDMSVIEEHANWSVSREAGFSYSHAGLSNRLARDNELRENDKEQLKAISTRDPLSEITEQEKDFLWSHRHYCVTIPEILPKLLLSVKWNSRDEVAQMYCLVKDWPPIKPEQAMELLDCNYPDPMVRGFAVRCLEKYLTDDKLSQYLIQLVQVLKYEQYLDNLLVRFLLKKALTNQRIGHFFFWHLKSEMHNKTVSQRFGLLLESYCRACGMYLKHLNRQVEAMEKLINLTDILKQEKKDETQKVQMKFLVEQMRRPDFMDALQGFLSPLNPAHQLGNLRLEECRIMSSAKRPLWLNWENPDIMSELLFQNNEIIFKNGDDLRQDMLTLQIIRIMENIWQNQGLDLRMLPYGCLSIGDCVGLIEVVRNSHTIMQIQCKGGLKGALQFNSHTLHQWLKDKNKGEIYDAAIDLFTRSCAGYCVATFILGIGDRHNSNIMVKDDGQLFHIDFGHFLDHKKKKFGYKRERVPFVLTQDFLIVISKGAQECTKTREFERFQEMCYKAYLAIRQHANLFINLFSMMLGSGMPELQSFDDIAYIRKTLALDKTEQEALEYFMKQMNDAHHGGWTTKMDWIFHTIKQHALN
protocol summary: Enzymatic PI3K alpha isoform inhibition (lipid kinase, Kinase-Glo luminescence)
Type: biochemical
condition parameters: enzymatic assay
attribute measured: IC50 (nM)

> print(dat)
                                   molecule  measurement
1  COc1ncc(N2CCc3ncnc(O[C@H]4CCN(C(=O)c5ncoc5C)C4)c3C2)cc1C [Example 30]         2830

(1) COc1ncc(N2CCc3ncnc(O[C@H]4CCN(C(=O)c5conc5C)C4)c3C2)cc1C [Example 32]
(2) COc1ncc(N2CCc3ncnc(O[C@H]4CCN(C(=O)c5ccncc5)C4)c3C2)cc1C(F)(F)F [Example 47]
[Q] Returns: the label, 1 or 2 , whose recorded IC50 is the lower number. Write down the label of the entry you select.
[A] 2
(2: 656 nM, 1: 2040 nM)

* * *

target under test: PI3K delta (Homo sapiens (Human))
protocol summary: Enzymatic PI3K delta isoform inhibition (lipid kinase, Kinase-Glo luminescence)
Type: biochemical
condition parameters: enzymatic assay
pIC50: −log10 of the molar value.
attribute measured: pIC50

Solved cases below.
> print(dat)
                                item.smiles  attribute.measured  measurement
1  COc1ncc(N2CCc3ncnc(O[C@H]4CCN(C(=O)c5cscn5)C4)c3C2)cc1C#N               pIC50         7.31
2  COc1ncc(N2CCc3ncnc(O[C@H]4CCN(C(=O)c5cccnc5)C4)c3C2)cc1C(F)(F)F               pIC50         7.80

(a) COc1cc(N2CCc3ncnc(O[C@H]4CCN(C(=O)c5cocn5)C4)c3C2)cnc1OC
(b) COc1ncc(N2CCc3ncnc(N[C@H]4CCN(C(=O)c5cocn5)C4)c3C2)cc1C
(c) COc1ncc(N2CCc3ncnc(O[C@H]4CCN(C(=O)c5cnn(C)c5)C4)c3C2)cc1C(F)(F)F
[Q] Form: Sort by [pIC50] Order [ ascending ] Rank them, then answer with their labels in that order.
[A] b, a, c
(b: 7.77, a: 8.10, c: 8.30)
